System: MDA-MB-435 melanoma
Test: NCI-60 one-dose screen, 48 h (100 = growth as untreated, 0 = no growth, -100 = all killed)
Details: 10 µM unless noted
Compounds without any hit were thinned out: in the full panel of roughly 83,000, 20% have a hit.
This listing pairs compounds with measured growth.
Endpoint Label: growth (%)

# Compound, Endpoint Label, Units Label, Test Result
data = [
    ("O=C1CSC(c2ccccc2Cl)N1c1nnc(Cn2cnnc2)o1 (stereo not drawn)", "growth", "%", -45.1),
    ("CCc1cc(Cc2cc(CC)cc(C(C)(C)C)c2O)c(O)c(C(C)(C)C)c1", "growth", "%", 18.4),
    ("Cc1ccc(C)c2c1C(=O)OC2=O", "growth", "%", 114),
    ("COc1ccc(/C(C)=C(\\c2ccc(Cl)cc2)c2ccc(OCCN3CCCCCC3)cc2)cc1F", "growth", "%", 52.4),
    ("COc1cc(-c2ccc(N=Nc3c(O)c(C(=O)Nc4ccccc4OC)cc4ccccc34)c(OC)c2)ccc1N=Nc1c(O)c(C(=O)Nc2ccccc2OC)cc2ccccc12", "growth", "%", 99.9),
    ("C[C@@H]1CC[C@@H]2[C@@H]1[C@H](OC(=O)/C=C/c1ccccc1)[C@]1(C3CCCCC3)C[C@@H](NC(=O)CO)[C@@]2(C)O1", "growth", "%", 94.3),
    ("C=C1C(=O)O[C@H]2[C@H]1CC/C(C(=O)NCCCCCCCCNC(=O)/C1=C/CC[C@@]3(C)O[C@H]3[C@H]3OC(=O)C(=C)[C@@H]3CC1)=C\\CC[C@@]1(C)O[C@@H]21", "growth", "%", 86.8),
    ("O=C(CCl)N1c2cccc3cccc(c23)N(C(=O)CCl)C1c1cn(-c2ccccc2)nc1-c1cccc([N+](=O)[O-])c1", "growth", "%", 84.2),
]
